Recorded measurements of IC50, one per entry
# EXPERIMENTAL TARGET: Recombinant human c-KIT kinase (Homo sapiens (Human))
# Sequence (P10721 26-976): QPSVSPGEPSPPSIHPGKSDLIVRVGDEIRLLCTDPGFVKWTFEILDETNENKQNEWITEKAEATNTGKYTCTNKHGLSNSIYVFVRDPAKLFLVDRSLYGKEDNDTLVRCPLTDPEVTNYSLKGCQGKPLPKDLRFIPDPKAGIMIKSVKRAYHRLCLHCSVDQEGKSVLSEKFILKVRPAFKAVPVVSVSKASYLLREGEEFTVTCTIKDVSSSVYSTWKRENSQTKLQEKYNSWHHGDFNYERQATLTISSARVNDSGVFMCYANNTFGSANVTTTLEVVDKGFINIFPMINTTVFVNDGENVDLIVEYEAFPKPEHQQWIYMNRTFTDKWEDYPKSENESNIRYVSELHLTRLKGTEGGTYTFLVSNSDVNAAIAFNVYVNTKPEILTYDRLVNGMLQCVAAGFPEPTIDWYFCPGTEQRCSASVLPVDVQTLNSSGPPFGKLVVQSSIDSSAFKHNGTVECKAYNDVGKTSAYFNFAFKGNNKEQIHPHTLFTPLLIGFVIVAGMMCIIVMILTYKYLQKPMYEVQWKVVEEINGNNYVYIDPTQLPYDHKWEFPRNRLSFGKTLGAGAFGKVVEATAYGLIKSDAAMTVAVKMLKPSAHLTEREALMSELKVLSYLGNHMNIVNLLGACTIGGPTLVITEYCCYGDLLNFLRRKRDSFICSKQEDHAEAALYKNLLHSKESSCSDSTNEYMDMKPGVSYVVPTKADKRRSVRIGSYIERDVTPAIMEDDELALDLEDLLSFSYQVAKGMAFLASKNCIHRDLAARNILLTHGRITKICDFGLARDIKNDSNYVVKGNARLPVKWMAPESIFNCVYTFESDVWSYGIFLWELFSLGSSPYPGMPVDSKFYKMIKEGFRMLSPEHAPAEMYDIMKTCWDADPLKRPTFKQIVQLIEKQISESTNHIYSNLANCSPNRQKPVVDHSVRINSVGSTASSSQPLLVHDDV
# ASSAY METHOD TEXT: c-KIT kinase chemiluminescence assay (ADP-Glo)
# MEASUREMENT SETUP: ATP 50 μM

Some solved cases for reference:
Cc1ccc(-c2noc([C@H]3C[C@@H]3F)n2)cc1NC(=O)c1cnc(-c2ccc(N3CC4(COC4)C3)cc2)o1    100 to 1000 nM
O=C(Nc1cc(-c2noc(C3CC(F)(F)C3)n2)ccc1Cl)c1cnn2ccc(N3CC4(C3)CC(O)(C(F)F)C4)cc12    < 100 nM
O=C(Nc1cc(-c2noc(N3CC(F)(F)C3)n2)ccc1Cl)c1cnn2ccc(N3CC4(C3)CC(O)(C(F)F)C4)cc12    100 to 1000 nM
Cc1ncc(-c2noc(N3CC(F)(F)C3)n2)cc1NC(=O)c1cnn2ccc(N3CC4(C3)CC(O)(C(F)F)C4)cc12    100 to 1000 nM
COC(=O)N1CCC(c2nc(-c3ccc(C)c(NC(=O)c4cnn5ccc(N6CC7(C6)CC(O)(C(F)F)C7)cc45)c3)no2)C1 (stereo not shown)    < 100 nM

For `Cc1ccc(-c2noc([C@H]3C[C@@H]3F)n2)cc1NC(=O)c1ccc2c(c1)CC(=O)N2` , what is its reported IC50?
> 1000 nM

For COC(=O)N1CCC(c2nc(-c3ccc(C)c(NC(=O)c4cnn5ccc(N6CC7(COC7)C6)cc45)c3)no2)C1 (stereo not shown) then?
< 100 nM

// provenance: patent US20250059174A1
